# TARGET_OR_TEST_SYSTEM: sGC α1/β1 heterodimer (Homo sapiens (Human), UniProt Q02108+Q02153)
# PROTOCOL_SUMMARY: Cell-based sGC functional assay (CASA assay), cGMP by HTRF
# APPLIED_CONDITIONS: inflection point of cGMP production, 4P fit; CHO-K1/sGC cells; read-out: IP
VALUE_TYPE: EC50 (µM)

{"COMPOUND": "CC1(c2ccc(Cl)c(O)c2)C(=O)Nc2nc(-c3cn4ccnc4c(Cc4ccc(F)cc4)n3)nc(N)c21 (centres unmarked)", "EC50 (µM)": 0.866}
{"COMPOUND": "CC1(c2nccc(O)c2Cl)C(=O)Nc2nc(-c3cn4ccnc4c(Cc4cc(F)cc(F)c4)n3)nc(N)c21 (centres unmarked)", "EC50 (µM)": 1.54}
{"COMPOUND": "CCCCc1nc(-c2nc(N)c3c(n2)NC(=O)C3(C)c2cc(O)ccn2)cn2ncnc12 (centres unmarked)", "EC50 (µM)": 0.457}
{"COMPOUND": "CC1(c2ccc(O)c(Cl)c2)C(=O)Nc2nc(-c3cn4ccnc4c(Cc4ccccc4F)n3)nc(N)c21 (centres unmarked)", "EC50 (µM)": 0.433}

a: CC1(c2ccc(Cl)c(O)c2)C(=O)Nc2nc(-c3cn4ccnc4c(Cc4ccc(F)cc4F)n3)nc(N)c21 (centres unmarked)
b: CC1(c2cc(O)c(C#N)c(F)c2)C(=O)Nc2nc(-c3cn4ccnc4c(Cc4cc(F)ccc4F)n3)nc(N)c21 (centres unmarked)
Problem: For a and b , which recorded EC50 is lower? Reply with the label of the item you choose.
Result: a
(a: 0.075 µM, b: 0.282 µM)

====

# TARGET_OR_TEST_SYSTEM: sGC α1/β1 heterodimer (Homo sapiens (Human), UniProt Q02108+Q02153)
# PROTOCOL_SUMMARY: Cell-based sGC functional assay (CASA assay), cGMP by HTRF
# APPLIED_CONDITIONS: CHO-K1, cGMP production as percentage of maximum of compound A (set to 100%); CHO-K1/sGC cells; read-out: % Activation
VALUE_TYPE: Emax (%)

Record excerpt, results attached:
{"MOLECULE": "CCCCc1nc(-c2nc(N)c3c(n2)NC(=O)C3(C)c2cc(O)ccn2)cn2ncnc12 (stereo not shown) [Example 118-B]", "VAL": 103}
{"MOLECULE": "CC1(c2cc(O)c(Cl)cn2)C(=O)Nc2nc(-c3cn4ccnc4c(Cc4ccc(F)cc4)n3)nc(N)c21 (stereo not shown) [Example 92-B]", "VAL": 104}
{"MOLECULE": "CC1(c2ccc(Cl)c(O)c2)C(=O)Nc2nc(-c3cn4ncnc4c(CCC(F)(F)C(F)(F)F)n3)nc(NCCCC(F)(F)F)c21 (stereo not shown) [Example 139-A]", "VAL": 68}
{"MOLECULE": "CC1(c2cc(O)c(C#N)c(Cl)c2)C(=O)Nc2nc(-c3cn4ncnc4c(Cc4ccccc4F)n3)nc(N)c21 (stereo not shown) [Example 149-A]", "VAL": 54}
{"MOLECULE": "CC1(c2cc(Cl)c(O)c(Cl)c2)C(=O)Nc2nc(-c3cn4ccnc4c(CC4CCCCC4)n3)nc(N)c21 (stereo not shown) [Example 113-A]", "VAL": 91}

P: CC(C)CCc1nc(-c2nc(N)c3c(n2)NC(=O)C3(C)c2cc(O)c(Cl)cn2)cn2ccnc12 (stereo not shown) [Example 57-B]
Q: CC1(c2cccc(O)c2)C(=O)Nc2nc(-c3cn4ccnc4c(Cc4cccc(Cl)c4)n3)nc(N)c21 (stereo not shown) [Example 124-B]
Problem: # return whichever of P and Q has the smaller Emax Your answer should be the label attached to the chosen record.
Result: P
(P: 67%, Q: 113%)

====

# TARGET_OR_TEST_SYSTEM: human recombinant sGC enzyme (Homo sapiens (Human), UniProt Q02108+Q02153)
# PROTOCOL_SUMMARY: SEC competition binding assay with [3H] Compound B radioligand
# APPLIED_CONDITIONS: displacement of 1.6 nM [3H] Compound B, 24 h at 37° C.
pKi: −log10 of the molar value.
VALUE_TYPE: pKi

{"COMPOUND": "CC1(c2cc(O)c(F)c(F)c2)C(=O)Nc2nc(-c3cn4ccnc4c(Cc4ccccc4F)n3)nc(N)c21 (stereo not shown)", "VALUE_TYPE": "pKi", "VAL": 9.90}
{"COMPOUND": "CC1(c2ccc(Cl)c(O)c2)C(=O)Nc2nc(-c3cn4ccnc4c(Cc4ccc(F)cc4F)n3)nc(N)c21 (stereo not shown)", "VALUE_TYPE": "pKi", "VAL": 9.70}
{"COMPOUND": "CC1(c2ccc(F)c(O)c2)C(=O)Nc2nc(-c3cn4ccnc4c(Cc4ccc(F)cc4F)n3)nc(N)c21 (stereo not shown)", "VALUE_TYPE": "pKi", "VAL": 9.67}
{"COMPOUND": "CC1(c2cc(O)c(C#N)c(F)c2)C(=O)Nc2nc(-c3cn4ccnc4c(CC4CCCCC4)n3)nc(N)c21 (stereo not shown)", "VALUE_TYPE": "pKi", "VAL": 9.77}

====

# TARGET_OR_TEST_SYSTEM: sGC α1/β1 heterodimer (Homo sapiens (Human), UniProt Q02108+Q02153)
# PROTOCOL_SUMMARY: Cell-based sGC functional assay (CASA assay), cGMP by HTRF
# APPLIED_CONDITIONS: inflection point of cGMP production, 4P fit; CHO-K1/sGC cells; read-out: IP
pEC50: −log10 of the molar value.
VALUE_TYPE: pEC50

Please review the following examples before continuing.
{"COMPOUND": "CC1(c2ccc(Cl)c(O)c2)C(=O)Nc2nc(-c3cn4ccnc4c(CC4CCCCC4)n3)nc(N)c21 (centres unmarked) [Example 14-A]", "TARGET_OR_TEST_SYSTEM": "sGC α1/β1 heterodimer (Homo sapiens (Human), UniProt Q02108+Q02153)", "pEC50": 6.84}
{"COMPOUND": "CCCCc1nc(-c2nc(N)c3c(n2)NC(=O)C3(C)c2cc(O)c(Cl)c(F)c2)cn2ccnc12 (centres unmarked) [Example 39-B]", "TARGET_OR_TEST_SYSTEM": "sGC α1/β1 heterodimer (Homo sapiens (Human), UniProt Q02108+Q02153)", "pEC50": 6.06}
{"COMPOUND": "CC1(c2cc(O)c(Cl)c(F)c2)C(=O)Nc2nc(-c3cn4ccnc4c(CC4CCCCC4)n3)nc(N)c21 (centres unmarked) [Example 12-B]", "TARGET_OR_TEST_SYSTEM": "sGC α1/β1 heterodimer (Homo sapiens (Human), UniProt Q02108+Q02153)", "pEC50": 7.01}

a: CC1(c2ccc(Cl)c(O)c2)C(=O)Nc2nc(-c3cn4ncnc4c(CCC(F)(F)C(F)(F)F)n3)nc(NCCC(F)(F)F)c21 (centres unmarked) [Example 138-A]
b: CC1(c2cc(O)c(C#N)c(F)c2)C(=O)Nc2nc(-c3cn4ccnc4c(Cc4cc(F)cc(F)c4F)n3)nc(N)c21 (centres unmarked) [Example 102-B]
c: CC1(c2ccc(F)c(O)c2)C(=O)Nc2nc(-c3cn4ccnc4c(Cc4ccc(F)cc4)n3)nc(N)c21 (centres unmarked) [Example 37-B]
Problem: Sort low-to-high on pEC50, please. Lab note: record answer as labels in requested order.
Result: b, a, c

a: CCCCc1nc(-c2nc(N)c3c(n2)NC(=O)C3(C)c2ccc(C(F)(F)F)c(O)c2)cn2ncnc12 (centres unmarked) [Example 61-B]
b: CC1(c2cccc(O)c2)C(=O)Nc2nc(-c3cn4ccnc4c(Cc4ccc(F)cc4)n3)nc(N3CCC(F)(F)CC3)c21 (centres unmarked) [Example 135-B]
c: CN1CCN(c2nc(-c3cn4ccnc4c(Cc4ccc(F)cc4)n3)nc3c2C(C)(c2ccc(Cl)c(O)c2)C(=O)N3)CC1 (centres unmarked) [Example 134-A]
d: CCCCc1nc(-c2nc(N)c3c(n2)NC(=O)C3(C)c2ccc(O)c(F)c2)cn2ncnc12 (centres unmarked) [Example 71-B]
Problem: Order the 4 compounds from highest to lowest pEC50. // format: requested-order list of labels
Result: d, a, c, b
(d: 7.52, a: 6.92, c: 6.48, b: 6.02)

====

# TARGET_OR_TEST_SYSTEM: human recombinant sGC enzyme (Homo sapiens (Human), UniProt Q02108+Q02153)
# PROTOCOL_SUMMARY: SEC competition binding assay with [3H] Compound B radioligand
# APPLIED_CONDITIONS: displacement of 1.6 nM [3H] Compound B, 24 h at 37° C.
pKi: −log10 of the molar value.
VALUE_TYPE: pKi

{"COMPOUND": "CC(C)CCc1nc(-c2nc(N)c3c(n2)NC(=O)C3(C)c2cccc(O)c2)cn2ccnc12 (stereo not drawn) [Example 59-B]", "VALUE_TYPE": "pKi", "VAL": 8.77}

A: CC1(c2ccc(Cl)c(O)c2)C(=O)Nc2nc(-c3cn4ncnc4c(CCC(F)(F)C(F)(F)F)n3)nc(NCC(O)C(F)(F)F)c21 (single isomer, unassigned) [Example 133-AA]
B: CCCCc1nc(-c2nc(N)c3c(n2)NC(=O)C3(C)c2cc(O)c(Cl)c(F)c2)cn2ncnc12 (stereo not drawn) [Example 42-B]
Problem: Form field 'greater pKi' accepts A or B ; which applies? Identify your selection by its label.
Result: B
